test system: Klebsiella pneumoniae; test: Antimicrobial activity against CTX-M-2 and TEM-1 producing Klebsiella pneumoniae transconjugants/transformants with PFGE pulsotype B by Etest; assay type: functional
Please respond with reported MIC for every item in the list.

Check out these entries, answers already filled in.
{"columns": ["Compound", "Recorded Measurement"],
 "data": [
  ["CO/N=C(\\C(=O)N[C@@H]1C(=O)N2C(C(=O)[O-])=C(C[N+]3(C)CCCC3)CS[C@H]12)c1csc(N)n1", "256 µg/mL"],
  ["C[C@H]1[C@H](NC(=O)/C(=N\\OC(C)(C)C(=O)O)c2csc(N)n2)C(=O)N1S(=O)(=O)O [AZTREONAM]", "256 µg/mL"],
  ["CC(C)(O/N=C(\\C(=O)N[C@@H]1C(=O)N2C(C(=O)[O-])=C(C[n+]3ccccc3)CS[C@H]12)c1csc(N)n1)C(=O)O [CEFTAZIDIME]", "12 µg/mL"]
]}

Would you kindly look at the next entry?
Look up and report measured MIC (Klebsiella pneumoniae) for the following compound: C[C@@H](O)[C@H]1C(=O)N2C(C(=O)O)=C(S[C@@H]3CN[C@H](C(=O)Nc4cccc(C(=O)O)c4)C3)[C@H](C)[C@H]12 0.125 µg/mL

Where do these numbers come from? They come from ChEMBL document CHEMBL1255347.
